- System: Acinetobacter baumannii
- experimental_protocol: Antibacterial activity against Acinetobacter baumannii ATCC19606 incubated for 18 to 20 hrs in presence of 1% of human serum by microbroth dilution method
- Assay type: functional
- setup_conditions: time 18-20 hrs
measurement_type: MIC95 (µM)

structure_smiles	unit_descriptor	MIC95
CCCCc1ccc(S(=O)(=O)Nc2ccc(NC(=O)CCC(=O)Nc3ccc(NS(=O)(=O)c4ccc(CCCC)nc4)c(C(=O)O)c3)cc2C(=O)O)cc1	µM	12.5

I = O=C(O)c1cc(CN[C@H]2C[C@@H](CNc3ccc(NS(=O)(=O)c4cnn(-c5ccc(Cl)cc5)c4)c(C(=O)O)c3)C2)ccc1NS(=O)(=O)c1cnn(-c2ccc(Cl)cc2)c1
II = CCCCc1ccc(S(=O)(=O)Nc2ccc(NC(=O)CCC(=O)Nc3ccc(N(C)S(=O)(=O)c4ccc(CCCC)cc4)c(C(=O)O)c3)cc2C(=O)O)cc1
III = CCCCc1ccc(S(=O)(=O)Nc2ccc(NC(=O)CCC(=O)Nc3ccc(NS(=O)(=O)c4ccc(CCCC)cc4)c(C(=O)O)c3)c(C(=O)O)c2)cc1
IV = Cn1nc(-c2ccccc2)cc1S(=O)(=O)Nc1ccc(NC(=O)CCCOc2ccc(NS(=O)(=O)c3cc(-c4ccccc4)nn3C)c(C(=O)O)c2)cc1C(=O)O
## Input Could you please order the items by MIC95, going from the lowest number to the highest? Give your ranking as a list of the labels in the requested order.
## Output I, IV, III, II
(I: 0.098 µM, IV: 1.11 µM, III: 12.5 µM, II: 50 µM)

Values were extracted from ChEMBL document CHEMBL5584343.
